- subject.of.test: HLA-A*0301 (human)
- assay.notes: inhibition of labelled probe peptide binding to purified HLA
- condition.info: remark: other sources report otherwise
# cutoff 0.002 applies to relative binding ratio; >= gives TRUE, < gives FALSE

relative binding ratio >= 0.002 for VTCTYSPALNK [p53 peptide, position 122, 11 amino acids] ? TRUE

relative binding ratio >= 0.002 for RVRAMAIYK [p53 peptide, position 156, 9 amino acids] ? TRUE
